I'd be grateful if you could share measured Change for these entries.
# Test system: Rattus norvegicus
# protocol description: Percent change in total cholesterol (TC) in cholic acid (0.5%)-, cholesterol (1.5%) -, and peanut oil (5.5%)- fed rats at a dose 30 mg/kg.
# Assay type: functional

CCCCCCCCCCCCc1nnn(C(C(=O)Nc2c(OC)cc(OC)cc2OC)c2ccccc2)n1 (stereo not given)	<65%
CCCCCCCCCCCCn1nnc(C(C(=O)NC2CC2)c2ccccc2)n1 (stereo not given)	<62%
CCCCCCCCCCCCc1nnn(CC(=O)Nc2c(OC)cc(OC)cc2OC)n1	<69%
CCCCCCCCCCCCn1nnc(CC(=O)Nc2c(OC)cc(OC)cc2OC)n1	<60%

Your task in this section: give Change for each listed record.
1. CCCCCCCCCCCCCCCCn1nnc(C(C(=O)Nc2c(OC)cc(OC)cc2OC)c2ccccc2)n1 (stereo not given)
2. CCCCCCCCCCCCn1nnc(C(C(=O)Nc2c(OC)ncnc2OC)c2ccccc2)n1 (stereo not given)
3. CCCCCCCCCCCCn1nnc(C(C)(C)C(=O)Nc2c(OC)cc(OC)cc2OC)n1
4. CCCCCCCCCCCCc1nnn(CC(=O)Nc2c(C(C)C)cccc2C(C)C)n1
5. CCCCCCCCCCCCn1nnc(CCC(=O)Nc2c(C(C)C)cccc2C(C)C)n1
6. C=CCCCCCCCCCn1nnc(C(C(=O)Nc2c(OC)cc(OC)cc2OC)c2ccccc2)n1 (stereo not given)

output:
1. <47%
2. <56%
3. <69%
4. <68%
5. <47%
6. <56%

###

# experimental target: Sterol O-acyltransferase 1 (Rattus norvegicus)
# Sequence (O70536 whole entry): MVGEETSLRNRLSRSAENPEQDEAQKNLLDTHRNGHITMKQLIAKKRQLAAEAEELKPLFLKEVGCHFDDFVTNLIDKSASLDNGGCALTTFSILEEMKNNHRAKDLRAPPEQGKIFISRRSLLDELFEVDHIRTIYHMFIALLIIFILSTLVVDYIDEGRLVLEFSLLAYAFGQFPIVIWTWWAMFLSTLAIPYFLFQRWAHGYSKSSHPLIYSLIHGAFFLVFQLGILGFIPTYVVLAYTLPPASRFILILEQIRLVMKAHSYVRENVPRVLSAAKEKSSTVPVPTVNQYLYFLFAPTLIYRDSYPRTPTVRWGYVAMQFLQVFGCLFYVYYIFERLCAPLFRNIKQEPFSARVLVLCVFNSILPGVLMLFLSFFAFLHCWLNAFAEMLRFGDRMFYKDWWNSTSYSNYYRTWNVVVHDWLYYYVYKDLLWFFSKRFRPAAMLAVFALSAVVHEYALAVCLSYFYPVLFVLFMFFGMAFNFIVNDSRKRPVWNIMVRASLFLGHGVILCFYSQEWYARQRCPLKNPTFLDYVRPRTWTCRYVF
# protocol description: In vitro inhibitory activity against acyl coenzyme A:cholesterol acyltransferase 1 of liver microsomes isolated from cholesterol-fed rats.
measured metric: pIC50
Give bare numbers, as −log10 of the molar value.

CCCCCCCCCCCCn1nnc(C(C(=O)Nc2ccc3c(C)cc(C)nc3n2)c2ccccc2)n1 (stereo not given)	5.81
CCCCCCCCCCCCn1nnc(C(C(=O)Nc2c(OC)ncnc2OC)c2ccccc2)n1 (stereo not given)	7.89
CCCCCCCCCCCCn1nnc(C(C(=O)Nc2ncccc2C)c2ccccc2)n1 (stereo not given)	7.07

Below are some compounds; for each one, tell me its pIC50.
1. CCCCCCCCCCCCn1nnc(C(=O)Nc2c(OC)cc(OC)cc2OC)n1
2. CCCCCCCCCCCCn1nnc(C(C(=O)Nc2c(OC)cc(OC)cc2OC)c2ccc(N(C)C)cc2)n1 (stereo not given)
3. CCCCCCCCCCCCn1nnc(C(C(=O)NC(C)(C)C)c2ccccc2)n1 (stereo not given)

output:
1. 4.45
2. 6.18
3. 5.48

Required: pIC50, one value per compound below.
1. CCCCCCCCn1nnc(C(C(=O)Nc2c(OC)cc(OC)cc2OC)c2ccccc2)n1 (stereo not given)
2. CCCCCCCCCCCCn1nnc(C(C(=O)Nc2ccccn2)c2ccccc2)n1 (stereo not given)
3. CCCCCCCCCCCCn1nnc(CCC(=O)Nc2c(OC)cc(OC)cc2OC)n1

output:
[6.57, 6.32, 6.32]

Result for CCCCCCCCCCCCn1nnc(C(C)C(=O)Nc2c(OC)cc(OC)cc2OC)n1 (stereo not given) , tested on Sterol O-acyltransferase 1 (Rattus norvegicus), pIC50: 7.51
